# Assay Target: OsSRT1 (FL) (Oryza sativa)
# Construct: gene SRT1; full length 1-483, cloned from rice leaf cDNA into pET30a, His-tagged, monomer by SEC
# Sequence (B8ARK7 1-483): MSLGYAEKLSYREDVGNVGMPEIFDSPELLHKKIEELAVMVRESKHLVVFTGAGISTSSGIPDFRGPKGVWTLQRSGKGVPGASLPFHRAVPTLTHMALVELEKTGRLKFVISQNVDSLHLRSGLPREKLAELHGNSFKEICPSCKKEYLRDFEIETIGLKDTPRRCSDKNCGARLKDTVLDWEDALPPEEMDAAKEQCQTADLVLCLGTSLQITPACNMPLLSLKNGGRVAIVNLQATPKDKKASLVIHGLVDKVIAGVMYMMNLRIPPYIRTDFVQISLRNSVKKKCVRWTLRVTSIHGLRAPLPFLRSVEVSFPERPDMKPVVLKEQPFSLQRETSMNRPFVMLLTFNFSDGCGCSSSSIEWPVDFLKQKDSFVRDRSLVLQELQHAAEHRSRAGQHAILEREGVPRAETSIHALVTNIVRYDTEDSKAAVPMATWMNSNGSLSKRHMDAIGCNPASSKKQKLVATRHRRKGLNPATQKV
# Assay Name: dot blot deacetylation assay, H3K9Ac
# Assay type: biochemical
Endpoint Name: IC50 (µM)

Molecule | Endpoint Name | Unit Label | Recorded Result
NC(=O)c1cccnc1 | IC50 | µM | 147
CCCC(=O)O [sodium butyrate] | IC50 | µM | 98

---

# Assay Target: OsSRT1 (FL) (Oryza sativa)
# Construct: full length 1-483, cloned from rice leaf cDNA into pET30a, His-tagged, monomer by SEC
# Assay Name: dot blot deacetylation assay, H3K9Ac
pEC50: −log10 of the molar value.

Molecule Smiles | pEC50
Oc1ccc(/C=C/c2cc(O)cc(O)c2)cc1 | 3.63

// data source = paper doi:10.1101/2021.11.05.467508v1
